FYI, the data here is from patent US20240317857A1.

target: T1, His-labeled human CD3E (human, UniProt P07766 23-126); assay: BLI (Octet), method of Example 3: His-labeled human CD3E on Ni-NTA sensors
T1 construct: also called human CD3E antigen; antigen CD3E; not shown: His label
T1 sequence (P07766 23-126): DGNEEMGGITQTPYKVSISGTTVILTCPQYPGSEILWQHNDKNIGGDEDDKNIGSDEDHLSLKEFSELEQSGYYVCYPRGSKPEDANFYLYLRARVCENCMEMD
Measured metric: Kd (nM)
Numbers only, in nM.

See these solved cases before continuing.
Data request: Recorded Kd of humanized antibody AB615 (antibody, V domains shown) VH: EVQLLESGGGLVQPGGSLKLSCAASGFDFNTYAMNWVRQAPGKGLEWVGRIRSKINNYATYYADSVKDRFTISRDDSKNTAYLQMNNLKTEDTAMYYCVRHDNFYGSTYSWFADWGQGTLVTVSS VL: ELVVTQEPSLTVSPGGTVTLTCRSSTGVVTTSNYANWVQEKPDHLFTGLIGATNYRAPGTPARFSGSLLGGKAALTLSGVQPEDEAIYFCVLWYSNHWVFGGGTKLTVL , please.
Data returned: 0.668

Data request: Recorded Kd of humanized antibody AB622 (antibody, V domains shown) VH: EVQLLESGGGLVQPGGSLKLSCAASGFTFNTYAMNWVRQAPGKGLEWVGRIRSKINNYATYYADSVKDRFTISRDDSKNTAYLQMNNLKTEDTAMYYCVRHDNFYGSTYSWFADWGQGTLVTVSS VL: ELVVTQEPSLTVSPGGTVTLTCRSSTGVVTTSNYANWVQEKPDHLFTGLIGATNHRAPGTPARFSGSLLGGKAALTLSGVQPEDEAIYFCVLWYSNHWVFGGGTKLTVL , please.
Data returned: 1.45

# input for lookup
Data request: Recorded Kd of humanized antibody AB616 (antibody, V domains shown) VH: EVQLLESGGGLVQPGGSLKLSCAASGFTFDTYAMNWVRQAPGKGLEWVGRIRSKINNYATYYADSVKDRFTISRDDSKNTAYLQMNNLKTEDTAMYYCVRHDNFYGSTYSWFADWGQGTLVTVSS VL: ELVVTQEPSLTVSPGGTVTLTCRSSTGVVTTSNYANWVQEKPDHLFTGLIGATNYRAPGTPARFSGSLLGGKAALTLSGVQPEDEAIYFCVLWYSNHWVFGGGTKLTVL , please.
Data returned: 0.116
